B1: Nuclear receptor subfamily 1 group D member 2, residues 103 to 171; numbered along this chain, Q14995 (parent)
chain: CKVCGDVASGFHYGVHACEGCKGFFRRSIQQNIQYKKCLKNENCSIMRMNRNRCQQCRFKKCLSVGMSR

- Variants of: B1
- EXPERIMENTAL_DETAILS: abundance fitness (aPCA) (normalised: wild type 0, dead -1); higher = more abundant; growth selection in yeast, the domain comes from the species named
- PARTICULARS: Homo sapiens
Measured abundance fitness, listed per entry.

# CHAIN_SEQUENCE, abundance fitness
measured = [
    ("CKVCGDVASGFHYGVHACEGCKGFFRRSIQQNIQYKKCLKNENCSIMRMNRNRCQQCRLKKCLSVGMSR [F59L]", 0.107),
    ("CKVCGDVASGFHYGVHACEGCKGFFRRSIQQHIQYKKCLKNENCSIMRMNRNRCQQCRFKKCLSVGMSR [N32H]", -0.566),
    ("CKVCGDVASGFHYGVHACEGCKGFFRRSIQQNIQYKKCLKNENCSIMRFNRNRCQQCRFKKCLSVGMSR [M49F]", 0.195),
    ("CKVCGDVASGFHYGVHACEGCKGFFRRSIQQNIQYKKCLKNENCLIMRMNRNRCQQCRFKKCLSVGMSR [S45L]", -0.183),
    ("CKVCGDVASGFHYGVHACEGCKGFFRRSIQQNIQYKKCLKNENCSIMIMNRNRCQQCRFKKCLSVGMSR [R48I]", 0.117),
    ("CKVCGDVASGFHYGVHACEGCKGFFRRSIQQNIQYKKSLKNENCSIMRMNRNRCQQCRFKKCLSVGMSR [C38S]", -0.579),
    ("CKVCGDVASGFHYGVHACEGCKGFFRRSIQQNIQYKKCLWNENCSIMRMNRNRCQQCRFKKCLSVGMSR [K40W]", 0.227),
    ("CKVCGDVASGFHYGVHACEGCKGFFRRSIQQNIQYKKCLKNENCSIMKMNRNRCQQCRFKKCLSVGMSR [R48K]", -0.005),
    ("CKVCGDVASGFHYGVHACEGCKGFFRRSIKQNIQYKKCLKNENCSIMRMNRNRCQQCRFKKCLSVGMSR [Q30K]", -0.195),
    ("CKVCGDVASGFHYGVHACEGCKGFFRRSIQQNIQYKKCLHNENCSIMRMNRNRCQQCRFKKCLSVGMSR [K40H]", -0.12),
    ("CKVCGDVASGFHYGVHACEGCKGFFRRSIQQNIQYKKCLKNENCSIMRMQRNRCQQCRFKKCLSVGMSR [N50Q]", 0.032),
    ("CKVCGDVASGFHYGVHACEGCKGFFRRSIQQNIQYKKCLKNENCSIMRMNRNRCQTCRFKKCLSVGMSR [Q56T]", -0.013),
    ("CKVCGDVASGFHYGVHACEGCKGFFRRSIQQNIQYKKCLKSENCSIMRMNRNRCQQCRFKKCLSVGMSR [N41S]", -0.022),
]

Where do these numbers come from? They come from the Human Domainome abundance scans (Beltran et al. 2025).
